Molecular target: Tyrosine-protein kinase JAK3 (Homo sapiens)
Sequence (P52333 whole entry): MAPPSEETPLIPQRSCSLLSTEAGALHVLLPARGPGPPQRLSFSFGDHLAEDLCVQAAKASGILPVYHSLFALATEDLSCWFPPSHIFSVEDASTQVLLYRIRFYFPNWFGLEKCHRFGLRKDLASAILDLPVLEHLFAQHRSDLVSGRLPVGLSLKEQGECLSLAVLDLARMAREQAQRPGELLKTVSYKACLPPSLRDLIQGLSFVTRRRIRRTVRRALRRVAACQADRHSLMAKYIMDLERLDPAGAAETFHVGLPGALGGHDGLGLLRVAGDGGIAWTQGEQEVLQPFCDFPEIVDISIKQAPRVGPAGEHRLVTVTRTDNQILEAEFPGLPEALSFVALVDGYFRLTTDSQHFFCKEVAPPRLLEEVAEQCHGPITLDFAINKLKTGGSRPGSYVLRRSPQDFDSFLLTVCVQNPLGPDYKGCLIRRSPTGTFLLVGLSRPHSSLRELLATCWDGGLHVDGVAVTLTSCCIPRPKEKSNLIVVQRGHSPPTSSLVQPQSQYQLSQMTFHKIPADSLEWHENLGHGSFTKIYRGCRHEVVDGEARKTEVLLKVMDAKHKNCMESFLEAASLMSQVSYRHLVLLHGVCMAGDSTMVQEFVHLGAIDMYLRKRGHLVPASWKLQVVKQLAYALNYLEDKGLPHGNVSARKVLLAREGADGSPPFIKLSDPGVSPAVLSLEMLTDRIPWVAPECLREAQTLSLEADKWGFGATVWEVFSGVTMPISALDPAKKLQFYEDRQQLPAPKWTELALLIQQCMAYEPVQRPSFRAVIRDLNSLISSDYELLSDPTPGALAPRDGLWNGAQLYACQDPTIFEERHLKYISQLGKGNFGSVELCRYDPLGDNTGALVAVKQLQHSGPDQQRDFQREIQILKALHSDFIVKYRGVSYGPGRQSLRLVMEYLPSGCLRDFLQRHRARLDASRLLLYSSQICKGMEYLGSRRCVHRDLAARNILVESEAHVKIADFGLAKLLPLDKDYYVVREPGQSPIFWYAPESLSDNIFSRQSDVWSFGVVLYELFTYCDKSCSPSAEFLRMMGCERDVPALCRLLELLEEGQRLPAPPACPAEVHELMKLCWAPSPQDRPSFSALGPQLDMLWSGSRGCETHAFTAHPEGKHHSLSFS
Test: Inhibition of recombinant JAK3 using poly(Glu,Ala,Tyr) as substrate after 2 hrs by luminometric assay
measurement-type: IC50 (nM)

INSERT INTO measurements (molecule, target_entity, measurement_type, qualifying_sign, reported_measurement) VALUES
  ('C1=C/COCc2cc(ccc2OCCN2CCCC2)Nc2nccc(n2)-c2ccnc(c2)OCC/1 (mixture of isomers)', 'Tyrosine-protein kinase JAK3 (Homo sapiens)', 'IC50', '=', 1400),
  ('C1=C2COC/C=C/COCc3cccc(c3)Nc3nccc(n3)C(=C1)O2 (mixture of isomers)', 'Tyrosine-protein kinase JAK3 (Homo sapiens)', 'IC50', '>', 10000),
  ('CN1C/C=C/CCOc2cc(ccn2)-c2ccnc(n2)Nc2cccc(c2)C1 (mixture of isomers)', 'Tyrosine-protein kinase JAK3 (Homo sapiens)', 'IC50', '>', 10000),
  ('C1=C2COC/C=C/COCc3cc(ccc3OCCN3CCCC3)Nc3nccc(n3)C(=C1)S2 (mixture of isomers)', 'Tyrosine-protein kinase JAK3 (Homo sapiens)', 'IC50', '=', 650),
  ('C1=C/Cn2ccc3ccc(cc32)-c2ccnc(n2)Nc2ccc(OCCN3CCCC3)c(c2)COC/1 (mixture of isomers)', 'Tyrosine-protein kinase JAK3 (Homo sapiens)', 'IC50', '=', 1140);

###

Experiment: Half life in rat liver microsomes at 5 uM
Assay type: ADME, Microsome
measurement-type: half-life at 5 µM

INSERT INTO measurements (compound, reported_measurement) VALUES
  ('C1=C2COC/C=C/COCc3cc(ccc3OCCN3CCCC3)Nc3nccc(n3)C(=C1)O2 (mixture of isomers)', '> 60 min');

###

Molecular target: Voltage-gated inwardly rectifying potassium channel KCNH2 (Homo sapiens, UniProt Q12809)
Sequence (Q12809 whole entry): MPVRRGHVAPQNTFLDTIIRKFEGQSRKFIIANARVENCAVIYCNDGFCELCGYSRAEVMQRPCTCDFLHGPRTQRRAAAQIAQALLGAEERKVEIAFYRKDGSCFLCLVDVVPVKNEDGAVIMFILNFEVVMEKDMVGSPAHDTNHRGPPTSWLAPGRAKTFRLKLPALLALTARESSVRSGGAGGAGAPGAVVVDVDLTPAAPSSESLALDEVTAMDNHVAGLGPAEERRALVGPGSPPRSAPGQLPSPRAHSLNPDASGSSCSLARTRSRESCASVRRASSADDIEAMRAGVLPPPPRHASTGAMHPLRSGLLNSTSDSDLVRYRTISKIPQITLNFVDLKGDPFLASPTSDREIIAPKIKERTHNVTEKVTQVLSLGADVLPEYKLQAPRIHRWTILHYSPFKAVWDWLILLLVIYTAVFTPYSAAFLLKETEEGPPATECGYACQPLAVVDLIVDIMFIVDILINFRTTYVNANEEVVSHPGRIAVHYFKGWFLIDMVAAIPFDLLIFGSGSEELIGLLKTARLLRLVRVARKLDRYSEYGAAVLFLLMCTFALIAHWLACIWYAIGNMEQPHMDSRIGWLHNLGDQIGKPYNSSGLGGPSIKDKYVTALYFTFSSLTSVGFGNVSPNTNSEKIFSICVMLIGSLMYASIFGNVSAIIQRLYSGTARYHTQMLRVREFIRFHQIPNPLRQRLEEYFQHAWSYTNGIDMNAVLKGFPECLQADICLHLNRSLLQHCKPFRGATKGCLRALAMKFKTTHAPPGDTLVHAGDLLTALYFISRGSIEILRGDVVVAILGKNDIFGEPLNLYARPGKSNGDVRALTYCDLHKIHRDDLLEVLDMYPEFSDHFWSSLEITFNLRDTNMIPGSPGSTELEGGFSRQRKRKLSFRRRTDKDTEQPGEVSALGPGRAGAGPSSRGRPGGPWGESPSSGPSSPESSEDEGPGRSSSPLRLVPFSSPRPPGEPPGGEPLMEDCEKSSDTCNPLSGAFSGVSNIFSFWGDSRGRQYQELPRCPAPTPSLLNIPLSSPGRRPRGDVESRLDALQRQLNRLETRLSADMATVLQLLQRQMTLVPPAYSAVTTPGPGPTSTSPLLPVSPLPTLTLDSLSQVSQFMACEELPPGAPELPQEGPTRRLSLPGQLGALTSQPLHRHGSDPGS
Experiment: Displacement of dofetilide from human ERG
pIC50: −log10 of the molar value.
Quick list: pIC50 per entry.
measurement-type: pIC50

INSERT INTO measurements (compound, qualifying_sign, reported_measurement) VALUES
  ('C1=C2COC/C=C/COCc3cc(ccc3OCCN3CCCC3)Nc3nccc(n3)C(=C1)S2 (mixture of isomers)', '=', 5.14),
  ('C1=C2COC/C=C/COCc3cc(ccc3OCCN3CCCC3)Nc3nccc(n3)C(=C1)O2 (mixture of isomers) [CT-1578]', '<', 5.00);

###

Quick list: pIC50 per entry.
Target: Tyrosine-protein kinase JAK2 (Homo sapiens, UniProt O60674)
Sequence (O60674 whole entry): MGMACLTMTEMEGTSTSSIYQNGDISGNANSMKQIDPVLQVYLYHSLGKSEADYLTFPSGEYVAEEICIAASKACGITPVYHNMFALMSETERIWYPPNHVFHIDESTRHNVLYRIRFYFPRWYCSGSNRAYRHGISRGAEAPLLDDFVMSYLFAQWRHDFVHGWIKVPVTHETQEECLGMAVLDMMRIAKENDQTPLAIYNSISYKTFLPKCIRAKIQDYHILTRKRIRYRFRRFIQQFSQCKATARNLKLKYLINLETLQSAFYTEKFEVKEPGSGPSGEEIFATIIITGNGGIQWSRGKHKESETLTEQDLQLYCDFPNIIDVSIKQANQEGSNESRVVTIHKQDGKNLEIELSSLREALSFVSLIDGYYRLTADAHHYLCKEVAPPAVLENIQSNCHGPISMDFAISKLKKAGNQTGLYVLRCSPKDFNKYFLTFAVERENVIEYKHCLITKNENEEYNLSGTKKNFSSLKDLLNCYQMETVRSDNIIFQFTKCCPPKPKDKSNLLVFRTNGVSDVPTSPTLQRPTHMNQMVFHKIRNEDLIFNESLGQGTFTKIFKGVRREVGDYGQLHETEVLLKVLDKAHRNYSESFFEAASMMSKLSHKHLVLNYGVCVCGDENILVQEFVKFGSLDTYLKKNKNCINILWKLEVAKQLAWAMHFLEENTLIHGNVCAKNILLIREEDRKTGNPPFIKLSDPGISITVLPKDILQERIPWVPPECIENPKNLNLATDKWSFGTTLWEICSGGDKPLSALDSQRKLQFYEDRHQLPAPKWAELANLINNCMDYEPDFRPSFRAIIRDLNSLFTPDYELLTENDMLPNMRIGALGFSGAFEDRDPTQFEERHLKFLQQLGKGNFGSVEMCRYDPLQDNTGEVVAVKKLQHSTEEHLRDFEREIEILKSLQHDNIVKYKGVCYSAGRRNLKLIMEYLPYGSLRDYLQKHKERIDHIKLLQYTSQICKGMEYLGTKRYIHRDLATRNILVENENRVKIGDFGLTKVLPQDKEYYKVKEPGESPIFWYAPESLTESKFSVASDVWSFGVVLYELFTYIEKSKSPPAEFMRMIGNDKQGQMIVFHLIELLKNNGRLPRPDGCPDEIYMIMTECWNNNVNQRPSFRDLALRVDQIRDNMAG
Test: Inhibition of recombinant JAK2 using poly(Glu,Ala,Tyr) as substrate after 2 hrs by luminometric assay
pIC50: −log10 of the molar value.
measurement-type: pIC50

INSERT INTO assay_data (molecule, reported_measurement) VALUES
  ('C1=C/Cn2ccc3ccc(cc32)-c2ccnc(n2)Nc2ccc(OCCN3CCCC3)c(c2)COC/1 (mixture of isomers)', 7.20),
  ('C1=C/COCc2cc(ccc2OCCN2CCCC2)Nc2nccc(n2)-c2coc(c2)COC/1 (mixture of isomers)', 7.17),
  ('C1=C/COCc2cc(ccc2OCCN2CCCC2)Nc2nccc(n2)-c2cc(co2)COC/1 (mixture of isomers)', 6.96);

###

Target: Tyrosine-protein kinase JAK1 (Homo sapiens)
Sequence (P23458 whole entry): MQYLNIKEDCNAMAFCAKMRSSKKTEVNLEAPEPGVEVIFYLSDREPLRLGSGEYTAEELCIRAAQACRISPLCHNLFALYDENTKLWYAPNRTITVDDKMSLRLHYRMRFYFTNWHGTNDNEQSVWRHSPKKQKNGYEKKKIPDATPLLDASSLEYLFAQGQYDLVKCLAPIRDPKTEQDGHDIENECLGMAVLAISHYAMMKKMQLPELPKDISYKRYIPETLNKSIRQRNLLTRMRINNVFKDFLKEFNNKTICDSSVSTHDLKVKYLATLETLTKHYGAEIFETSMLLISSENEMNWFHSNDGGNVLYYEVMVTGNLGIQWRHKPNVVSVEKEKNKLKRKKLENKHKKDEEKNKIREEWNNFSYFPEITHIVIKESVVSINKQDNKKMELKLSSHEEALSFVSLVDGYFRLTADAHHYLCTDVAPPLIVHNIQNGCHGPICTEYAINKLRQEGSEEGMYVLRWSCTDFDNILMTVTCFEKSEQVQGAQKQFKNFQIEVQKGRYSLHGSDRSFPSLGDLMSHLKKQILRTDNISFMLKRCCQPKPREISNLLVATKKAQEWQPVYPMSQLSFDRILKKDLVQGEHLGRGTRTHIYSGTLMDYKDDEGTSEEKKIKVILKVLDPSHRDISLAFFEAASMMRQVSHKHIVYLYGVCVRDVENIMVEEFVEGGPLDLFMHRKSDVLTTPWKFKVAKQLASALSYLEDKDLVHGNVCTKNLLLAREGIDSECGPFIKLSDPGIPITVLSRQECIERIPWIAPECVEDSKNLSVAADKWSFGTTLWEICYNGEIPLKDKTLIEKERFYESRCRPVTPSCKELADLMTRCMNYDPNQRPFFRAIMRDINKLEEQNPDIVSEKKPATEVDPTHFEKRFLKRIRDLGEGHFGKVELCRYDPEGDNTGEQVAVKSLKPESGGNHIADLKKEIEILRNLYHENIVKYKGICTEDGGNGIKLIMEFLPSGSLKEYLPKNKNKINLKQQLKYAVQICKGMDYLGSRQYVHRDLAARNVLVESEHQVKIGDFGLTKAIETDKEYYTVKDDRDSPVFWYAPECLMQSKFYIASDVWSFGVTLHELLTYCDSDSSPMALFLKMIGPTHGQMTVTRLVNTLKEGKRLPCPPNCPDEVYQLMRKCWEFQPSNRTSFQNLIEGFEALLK
Experiment: Inhibition of recombinant JAK1 using poly(Glu,Ala,Tyr) as substrate after 2 hrs by luminometric assay
pIC50: −log10 of the molar value.
Quick list: pIC50 per entry.
measurement-type: pIC50

INSERT INTO results (compound, qualifying_sign, reported_measurement) VALUES
  ('CN1C/C=C/CCn2ccc3ccc(cc32)-c2ccnc(n2)Nc2cccc(c2)C1 (mixture of isomers)', '=', 6.00),
  ('C1=C2COC/C=C/COCc3cc(ccc3OCCN3CCCC3)Nc3nccc(n3)C(=C1)O2 (mixture of isomers) [CT-1578]', '=', 5.57),
  ('CN1C/C=C/CCOc2cc(ccn2)-c2ccnc(n2)Nc2cccc(c2)C1 (mixture of isomers)', '=', 6.77),
  ('CN1C/C=C/COCC2=CC=C(S2)c2ccnc(n2)Nc2ccc(OCCN3CCCC3)c(c2)C1 (mixture of isomers)', '=', 6.70),
  ('C1=C/Cn2ccc3ccc(cc32)-c2ccnc(n2)Nc2cccc(c2)COC/1 (mixture of isomers)', '=', 5.32),
  ('CN1C/C=C/COCC2=CC=C(O2)c2ccnc(n2)Nc2ccc(OCCN3CCCC3)c(c2)C1 (mixture of isomers)', '=', 6.19),
  ('C1=C/COCc2cc(ccc2OCCN2CCCC2)Nc2nccc(n2)-c2cncc(c2)COC/1 (mixture of isomers)', '<', 5.00);

Value source: ChEMBL document CHEMBL2034857
